Sourced from ChEMBL document CHEMBL1150977

Lab note: Kd readings collected with Dual specificity protein kinase CLK3 (Homo sapiens, UniProt P49761) for the following compounds.
Sequence (P49761 whole entry): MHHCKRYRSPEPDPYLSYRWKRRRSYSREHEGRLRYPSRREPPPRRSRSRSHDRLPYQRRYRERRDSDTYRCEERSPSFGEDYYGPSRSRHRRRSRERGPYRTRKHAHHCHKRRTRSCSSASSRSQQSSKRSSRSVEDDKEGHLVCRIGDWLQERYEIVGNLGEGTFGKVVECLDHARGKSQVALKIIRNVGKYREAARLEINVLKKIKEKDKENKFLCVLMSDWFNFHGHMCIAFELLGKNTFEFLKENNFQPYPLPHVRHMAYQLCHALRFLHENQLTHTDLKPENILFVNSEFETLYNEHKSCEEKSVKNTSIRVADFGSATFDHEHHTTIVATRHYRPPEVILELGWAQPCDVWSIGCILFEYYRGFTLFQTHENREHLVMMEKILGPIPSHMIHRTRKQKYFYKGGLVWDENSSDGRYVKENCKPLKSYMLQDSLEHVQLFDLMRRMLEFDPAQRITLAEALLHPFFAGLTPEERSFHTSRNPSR

{"columns": ["Structure as smiles", "Kd"],
 "data": [
  ["Nc1nc(Nc2ccc(S(N)(=O)=O)cc2)nn1C(=O)c1c(F)cccc1F", "0.31 µM"],
  ["CCOc1cc2ncc(C#N)c(Nc3ccc(F)c(Cl)c3)c2cc1NC(=O)/C=C/CN(C)C", "5.6 µM"],
  ["NC(=O)c1ccc(-c2nc(-c3ccc4c(c3)OCO4)c(-c3ccccn3)[nH]2)cc1", "> 10 µM"],
  ["CCN1CCN(Cc2ccc(NC(=O)Nc3ccc(Oc4cc(NC)ncn4)cc3)cc2C(F)(F)F)CC1", "> 10 µM"],
  ["Oc1ccc(-c2nc(-c3ccncc3)c(-c3ccc(F)cc3)[nH]2)cc1", "> 10 µM"]
]}

Would you kindly look at the next entry?
query: What value of Kd has been reported for the following compound? "COCC(=O)NC/C=C/c1ccc2ncnc(Nc3ccc(Oc4ccc(C)nc4)c(C)c3)c2c1"
result: > 10 µM
